Reported Endpoint: melting point (°C)

1. CCOc1ccc2c(c1)C(C)(c1ccccc1F)C(=O)N2S(=O)(=O)c1ccc(C(=O)NC(C)(C)C)cc1 (stereo not drawn)    116
2. CCOc1ccc2c(c1)C(C)(c1ccccc1Cl)C(=O)N2S(=O)(=O)c1ccc(C(=O)NC(C)(C)CO)cc1 (stereo not drawn)    152
3. CCOc1ccc2c(c1)C(C)(c1ccccc1Cl)C(=O)N2S(=O)(=O)c1ccc(C(=O)NC(C)(C)C)cc1 (single isomer, unassigned)    153

###

Assayed System: human oxytocin receptors (Homo sapiens, UniProt P30559)
Sequence (P30559 whole entry): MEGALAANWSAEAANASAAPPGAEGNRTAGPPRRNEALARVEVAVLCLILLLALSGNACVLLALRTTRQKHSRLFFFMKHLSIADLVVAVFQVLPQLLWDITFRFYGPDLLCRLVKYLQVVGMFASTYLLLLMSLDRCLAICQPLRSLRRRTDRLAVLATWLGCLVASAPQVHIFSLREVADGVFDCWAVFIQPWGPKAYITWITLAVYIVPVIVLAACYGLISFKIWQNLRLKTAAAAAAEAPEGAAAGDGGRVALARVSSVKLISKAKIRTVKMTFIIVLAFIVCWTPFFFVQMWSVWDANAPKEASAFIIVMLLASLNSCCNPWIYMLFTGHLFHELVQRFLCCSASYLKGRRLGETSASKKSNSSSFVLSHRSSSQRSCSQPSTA
Test Protocol: in vitro binding test, displacement of a radioiodated oxytocin analogue from oxytocin receptors
Test Parameters: selectivity ratio versus V2
Measured IC50 OXT/IC50 V2, listed per entry.

Here is how some compounds turned out for IC50 OXT/IC50 V2.
1) CCOc1ccc2c(c1)C(C)(c1cc(C(=O)NCCN3CCOCC3)ccc1Cl)C(=O)N2S(=O)(=O)c1ccc(C(=O)NC(C)(C)C)cc1OC (centres unmarked)    67
2) CCOc1ccc2c(c1)C(C)(c1ccccc1)C(=O)N2S(=O)(=O)c1ccc(C(=O)NC(C)(C)C)cc1OC (single isomer, unassigned)    >100
3) COc1cc(C(=O)NC(C)(C)C)ccc1S(=O)(=O)N1C(=O)C(C)(c2ccccc2Cl)c2cc(O)ccc21 (centres unmarked)    50

Query: Tell me the measured IC50 OXT/IC50 V2 of CCOc1ccc2c(c1)C(C)(c1ccccc1Cl)C(=O)N2S(=O)(=O)c1ccc(C(=O)NC(C)(C)CO)cc1 (centres unmarked) , please.
Result: >100

Query: Can you handle CCOc1ccc2c(c1)C(C)(c1cc(C(=O)N[C@@H]3CCNC3)ccc1Cl)C(=O)N2S(=O)(=O)c1ccc(C(=O)NC(C)(C)C)cc1OC (single isomer, unassigned) next?
Result: >100

Query: Can you handle CCNC(=O)c1ccc(Cl)c(C2(C)C(=O)N(S(=O)(=O)c3ccc(C(=O)NC(C)(C)C)cc3OC)c3ccc(OCC)cc32)c1 (centres unmarked) next?
Result: >100

Query: Can you handle CCOc1ccc2c(c1)C(C)(c1ccccc1Cl)C(=O)N2S(=O)(=O)c1ccc(C(=O)NC(C)(C)C)cc1 (single isomer, unassigned) next?
Result: 74

Query: Can you handle CCOc1ccc2c(c1)C(C)(c1cc(NC(=O)C3CCN(C)CC3)ccc1Cl)C(=O)N2S(=O)(=O)c1ccc(C(=O)NC(C)(C)C)cc1OC (centres unmarked) next?
Result: >100

###

Assayed System: V1b receptors (Homo sapiens, UniProt P47901)
Sequence (P47901 whole entry): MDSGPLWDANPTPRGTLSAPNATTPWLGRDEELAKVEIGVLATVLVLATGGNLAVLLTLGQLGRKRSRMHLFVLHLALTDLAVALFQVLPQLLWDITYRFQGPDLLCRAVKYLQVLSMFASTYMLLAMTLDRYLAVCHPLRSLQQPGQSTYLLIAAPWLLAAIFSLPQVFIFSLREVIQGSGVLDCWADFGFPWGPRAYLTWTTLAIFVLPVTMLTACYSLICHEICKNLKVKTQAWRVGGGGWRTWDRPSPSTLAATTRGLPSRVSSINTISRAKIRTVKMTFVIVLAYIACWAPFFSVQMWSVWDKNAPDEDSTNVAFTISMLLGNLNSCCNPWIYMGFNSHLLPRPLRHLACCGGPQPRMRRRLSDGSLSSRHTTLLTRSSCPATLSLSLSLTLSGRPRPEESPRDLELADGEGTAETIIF
Test Protocol: affinity for V1b receptors (method of Sugimoto et al.)
Type: binding
Test Parameters: selectivity ratio versus V2
Reported Endpoint: IC50 V1b/IC50 V2

1. CCOc1ccc2c(c1)C(C)(c1ccccc1Cl)C(=O)N2S(=O)(=O)c1ccc(C(=O)NC(C)(C)CO)cc1 (stereo not drawn)    >100
2. CCOc1ccc2c(c1)C(C)(c1cc(C(=O)N[C@@H]3CCNC3)ccc1Cl)C(=O)N2S(=O)(=O)c1ccc(C(=O)NC(C)(C)C)cc1OC (single isomer, unassigned)    >100

Now, please, on to the next molecule.
Query: Tell me the measured IC50 V1b/IC50 V2 of CCOc1ccc2c(c1)C(C)(c1cc(C(=O)NCCN3CCOCC3)ccc1Cl)C(=O)N2S(=O)(=O)c1ccc(C(=O)NC(C)(C)C)cc1OC (stereo not drawn) , please.
Result: >100
